# method.description: Cmax in Swiss mouse brain at 10 mg/kg, po
# Assay type: ADME, organism-based
# Design: dose 10 mg/kg, route oral
quantity.kind: log10 of Cmax (log10 of the value in ng/mL)
Could you please treat all values as log10 of Cmax in ng/mL?

Here is how some compounds turned out for log10 of Cmax.
                  input_smiles  quantity_kind  result
0        O=C(O)c1cc2occc2[nH]1  log10 of Cmax    2.69
1        O=C(O)c1cc2sccc2[nH]1  log10 of Cmax    2.53
2  O=c1[nH]c2ccc(F)c(Cl)c2cc1O  log10 of Cmax    1.08
3     O=c1[nH]c2cccc(Cl)c2cc1O  log10 of Cmax    1.07

// moving on: another record for log10 of Cmax
Query :: Data request, read-out log10 of Cmax, for `Oc1noc2cc(Cl)ccc12`
Result :: 2.36
